# pEC50 listing for each entry below
molecular target: hSTING (Homo sapiens, UniProt Q86WV6, G230A/H232R/R293Q/R71H); assay: STING reporter assay (luciferase) in THP1-Dual KO-IFNAR2 cells stimulated with 2'3'cGAMP; conditions: 2'3'cGAMP 15 μM, 24 h, luciferase reporter activity
Sequence (Q86WV6 whole entry R71H/G230A/H232R/R293Q): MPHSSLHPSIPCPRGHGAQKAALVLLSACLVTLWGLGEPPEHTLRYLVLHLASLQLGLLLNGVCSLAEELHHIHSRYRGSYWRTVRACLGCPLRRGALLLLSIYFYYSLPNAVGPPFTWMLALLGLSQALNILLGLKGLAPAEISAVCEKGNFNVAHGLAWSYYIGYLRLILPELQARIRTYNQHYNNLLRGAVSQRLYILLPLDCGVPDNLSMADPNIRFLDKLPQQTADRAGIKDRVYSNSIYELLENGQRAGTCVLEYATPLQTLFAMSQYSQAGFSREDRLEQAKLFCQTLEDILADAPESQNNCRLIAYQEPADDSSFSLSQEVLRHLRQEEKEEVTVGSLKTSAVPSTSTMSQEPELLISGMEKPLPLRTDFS
pEC50: −log10 of the molar value.

                          chemicalstructure      observed
0  Cc1cc(NC(=O)Nc2c[nH]c3cc(F)c(F)cc23)cnc1C1CCN(CC(F)(F)F)CC1  6.00 to 6.70
1  C[C@H]1CN(c2ncc(NC(=O)Nc3c[nH]c4ccc(Cl)cc34)cc2Cl)C[C@H](C)N1  4.00 to 5.30
2  O=C(Nc1cnc(C2CCN(CC(F)(F)F)CC2)c(Cl)c1)Nc1c[nH]c2ccc(Cl)cc12  6.70 to 7.40
3  O=C(Nc1cnn(CC2CCC(F)(F)CC2)c1)Nc1c[nH]c2ccc(Cl)cc12  6.00 to 6.70
4  O=C(Nc1cnc(C2CCC(F)(F)CC2)c(Cl)c1)Nc1c[nH]c2c(Br)cc(Cl)cc12  6.00 to 6.70

[ask] Which measured pEC50 belongs to O=C(Nc1ccc(N2CCC(F)(F)CC2)nc1)Nc1c[nH]c2ccc(F)cc12 , tested on hSTING (Homo sapiens, UniProt Q86WV6, G230A/H232R/R293Q/R71H)?
[reply] 6.00 to 6.70

[ask] Provide the documented pEC50 with hSTING (Homo sapiens, UniProt Q86WV6, G230A/H232R/R293Q/R71H) as the system for Cc1cc(NC(=O)Nc2c[nH]c3ccccc23)cnc1C1CCN(CC(F)(F)F)CC1
[reply] 6.00 to 6.70

[ask] GET /values?readout=pEC50&system=hSTING (Homo sapiens, UniProt Q86WV6, G230A/H232R/R293Q/R71H)&item= Cc1ccc2[nH]cc(NC(=O)Nc3cnc(N4CCC(F)(F)CC4)c(C)c3)c2c1
[reply] 6.70 to 7.40

[ask] # returns recorded pEC50 (system: hSTING (Homo sapiens, UniProt Q86WV6, G230A/H232R/R293Q/R71H)) for O=C(Nc1ccc(C2CCC2)cc1)Nc1c[nH]c2ccc(Cl)cc12
[reply] 6.70 to 7.40

---

In this section we review reported EC50 values for a set of compounds.
target: hSTING (Homo sapiens, UniProt Q86WV6, G230A/H232R/R293Q/R71H); assay: STING reporter assay (luciferase) in THP1-Dual KO-IFNAR2 cells stimulated with 2'3'cGAMP; details: 2'3'cGAMP 15 μM, 24 h, luciferase reporter activity

>>> df
                                   compound         observed
0  C[C@@H]1CN(c2ncc(NC(=O)Nc3c[nH]c4cc(F)c(F)cc34)cc2Cl)C[C@H](C)O1     40 to 200 nM
1  O=C(Nc1cnc(C2CC(F)(F)C2)c(F)c1)Nc1c[nH]c2ccc(Cl)cc12     40 to 200 nM
2  COC(=O)c1cc(NC(=O)Nc2c[nH]c3ccccc23)cnc1C1CCC(F)(F)CC1     40 to 200 nM
3  O=C(Nc1cnc(N2CC3(CN(CC(F)(F)F)C3)C2)c(Cl)c1)Nc1c[nH]c2ccc(Cl)cc12     40 to 200 nM
4  O=C(Nc1cn(C2CCC(F)(F)CC2)cn1)Nc1c[nH]c2ccc(F)cc12  1000 to 5000 nM

# input for lookup
[ask] Provide value of EC50 for this record tested with hSTING (Homo sapiens, UniProt Q86WV6, G230A/H232R/R293Q/R71H): O=C(Nc1ccc(C2CC(F)(F)C2)c(F)c1)Nc1c[nH]c2ccccc12
[reply] 200 to 1000 nM

---

target: hSTING (Homo sapiens, UniProt Q86WV6, G230A/H232R/R293Q/R71H); test: STING reporter assay (luciferase) in THP1-Dual KO-IFNAR2 cells stimulated with 2'3'cGAMP; settings: 2'3'cGAMP 15 μM, 24 h, luciferase reporter activity
propertyMeasured: EC50

                                   compound                                testtarget        observed
0  Cc1cc(NC(=O)Nc2c[nH]c3ccc(Cl)cc23)cnc1N1CC2(C1)CC(F)(F)C2 [Compound 129]  hSTING (Homo sapiens, UniProt Q86WV6, G230A/H232R/R293Q/R71H)    40 to 200 nM
1  CC1(C)OCC(c2ncc(NC(=O)Nc3c[nH]c4ccccc34)cc2Cl)CO1 [Compound 263]  hSTING (Homo sapiens, UniProt Q86WV6, G230A/H232R/R293Q/R71H)  200 to 1000 nM
2  O=C(Nc1cnc(C2CC(F)(F)C2)c(Cl)c1)Nc1c[nH]c2ccc(Cl)cc12 [Compound 144]  hSTING (Homo sapiens, UniProt Q86WV6, G230A/H232R/R293Q/R71H)    40 to 200 nM

[ask] Need EC50 of CO[C@@H]1CCCN(c2ncc(NC(=O)Nc3c[nH]c4cc(F)c(F)cc34)cc2Cl)C1 [Compound 149] , thanks.
[reply] 200 to 1000 nM

---

Property: EC50; scope: individual compounds
Target: hSTING (Homo sapiens, UniProt Q86WV6, G230A/H232R/R293Q/R71H)
Experiment: STING reporter assay (luciferase) in THP1-Dual KO-IFNAR2 cells stimulated with 2'3'cGAMP
Conditions: 2'3'cGAMP 15 μM, 24 h, luciferase reporter activity
Procedure: STING pathway activation by the compounds described herein is measured using THP1-Dual™ cells (KO-IFNAR2). […] 2 mL of solution A and 2 ml Solution B is mixed and incubated for 20 min at room temperature (RT). […] Luciferase reporter activity is then measured. EC50 values are calculated by using standard methods known in the art. […] Luciferase reporter activity is then measured. EC50 values are calculated by using standard methods known in the art.

                          chemicalstructure  propertymeasured        observed
0  O=C(Nc1cnc(N2CCOCC2)c(Cl)c1)Nc1c[nH]c2cc(F)c(F)cc12              EC50  200 to 1000 nM
1  O=C(Nc1ccc(N2CCN(CC(F)(F)F)CC2)nc1)Nc1c[nH]c2ccccc12              EC50  200 to 1000 nM
2  O=C(Nc1ccc(N2CCN(CC(F)(F)F)CC2)nc1)Nc1c[nH]c2ccc(F)cc12              EC50  200 to 1000 nM
3  O=C(Nc1cnn(C2CC(F)(F)C2)c1)Nc1c[nH]c2ccc(Cl)cc12              EC50  200 to 1000 nM
4  O=C(Nc1cnc(N2CCC3(CCCCO3)CC2)c(Cl)c1)Nc1c[nH]c2cc(F)c(F)cc12              EC50  200 to 1000 nM
5  O=C(Nc1cnc(N2CC3(CN(CC(F)(F)F)C3)C2)c(Cl)c1)Nc1c[nH]c2ccccc12              EC50  200 to 1000 nM

[ask] Which EC50 is listed for O=C(Nc1cnc(N2CCC(F)(F)CC2)c(Cl)c1)Nc1c[nH]c2ccccc12 ?
[reply] 40 to 200 nM

[ask] Bench note: what EC50 did O=C(Nc1ccc(C2CC(F)(F)C2)c(F)c1)Nc1c[nH]c2ccc(Cl)cc12 show?
[reply] 40 to 200 nM

[ask] Report EC50 for C[C@@H]1CN(c2ncc(NC(=O)Nc3c[nH]c4ccc(Cl)cc34)cc2Cl)C[C@H](C)N1 please.
[reply] 5000 to 100000 nM

[ask] Record request: EC50 value, item O=C(Nc1cncc(C2CCC(F)(F)CC2)c1)Nc1c[nH]c2ccc(Cl)cc12
[reply] 200 to 1000 nM

[ask] GET /values?readout=EC50&item= CS(=O)(=O)c1ccc2[nH]cc(NC(=O)Nc3cnc(N4CCC(F)(F)CC4)c(Cl)c3)c2c1
[reply] 5000 to 100000 nM

[ask] Bench note: what EC50 did O=C(Nc1cnc(N2CC3(C2)CC(F)(F)C3)c(Cl)c1)Nc1c[nH]c2ccc(Cl)cc12 show?
[reply] 40 to 200 nM

[ask] What value of measured EC50 is listed for O=C(Nc1ccc(C2CCC(F)(F)CC2)nc1)Nc1c[nH]c2ccc(Br)cc12 ?
[reply] 40 to 200 nM

---

biological target: hSTING (Homo sapiens, UniProt Q86WV6, G230A/H232R/R293Q/R71H); experiment: STING reporter assay (luciferase) in THP1-Dual KO-IFNAR2 cells stimulated with 2'3'cGAMP; details: 2'3'cGAMP 15 μM, 24 h, luciferase reporter activity
Below: a set of entries, each annotated with reported EC50.

>>> print(df.to_string())
                                   compound                                testtarget  propertymeasured        observed
0  Cc1cc(NC(=O)Nc2c[nH]c3ccccc23)cnc1N1CCC2(CC1)CC2  hSTING (Homo sapiens, UniProt Q86WV6, G230A/H232R/R293Q/R71H)              EC50  0.04 to 0.2 µM

[ask] Using the record for O=C(Nc1cnc(C2CC(F)(F)C2)c(Cl)c1)Nc1c[nH]c2cc(F)c(F)cc12 , report its EC50.
[reply] 0.2 to 1 µM

[ask] Value lookup for EC50; key = O=C(Nc1cc(Cl)c(C2CCC(F)(F)CC2)cn1)Nc1c[nH]c2ccc(F)cc12
[reply] 0.04 to 0.2 µM

[ask] Return reported EC50; argument: O=C(Nc1cnc(N2CCC(F)(F)CC2)nc1)Nc1c[nH]c2ccccc12
[reply] 1 to 5 µM

[ask] Consider the compound COC1CCN(c2ncc(NC(=O)Nc3c[nH]c4ccccc34)cc2C)CC1 and give its measured EC50.
[reply] 1 to 5 µM

[ask] Entry O=C(Nc1cnc(C2CCN(CCC(F)(F)F)C2)c(Cl)c1)Nc1c[nH]c2ccc(Cl)cc12 (centres unmarked) has what EC50?
[reply] 0.04 to 0.2 µM

[ask] What does the data say about its EC50? Entry: O=C(Nc1cnc(N2CCC(F)(F)CC2)c(CCO)c1)Nc1c[nH]c2ccc(Cl)cc12
[reply] 0.2 to 1 µM

[ask] Quick one: EC50 for O=C(Nc1cnc(N2CC(C(F)(F)F)C2)c(Cl)c1)Nc1c[nH]c2ccc(Cl)cc12 ?
[reply] 0.04 to 0.2 µM
